Test system: SNB-78
measurement_description: NCI tumour cell line growth inhibition, 48 h
Calls of active or inactive are those of the source. Rule as the data show it: active = GI50 up to about 1.1 µM and inactive = higher.
measured_property: GI50

Reference set, count: 10
| compound | GI50 |
| --- | --- |
| Cc1ccc(S(=O)(=O)C2=c3ncccc3=C3C(=O)c4ccccc4C(=O)C32)cc1 (stereo unspecified) | > 100 µM (inactive) |
| CCCCCCCCCCCCCCCCCCC1=C(O)C(=O)C=C(OC)C1=O | 71.9 µM (inactive) |
| NCCSc1nc(N)c2ncn(C3OC(CO)C(O)C3O)c2n1 (stereo unspecified) | > 100 µM (inactive) |
| O=C(COc1ccccc1Cl)N1N=C(c2ccccc2)CC1(O)c1ccccc1 (stereo unspecified) | 20.4 µM (inactive) |
| CN=[S+]([O-])(c1ccccc1)c1ccccc1 | > 100 µM (inactive) |
| O=C(/C=C/c1c(O)ccc2ccccc12)c1cccc2ccccc12 | > 100 µM (inactive) |
| CC1=C(C(=O)Nc2cccc(Cl)c2)C(c2ccccc2F)C(C(=O)Nc2cccc(Cl)c2)=C(C)N1 | 18.7 µM (inactive) |
| Oc1cc(O)c2c(-c3c(O)c(-c4ccc(O)c(O)c4)[o+]c4cc(O)cc(O)c34)c(O)c(-c3ccc(O)c(O)c3)[o+]c2c1 | 51.5 µM (inactive) |
| COc1ccc(/C(C=O)=C(\Cl)c2ccc(OC)c(OC)c2)cc1 | 23 µM (inactive) |
| Cc1ccc(N2C(=O)C(=CN)C(=O)N(c3ccc(C)cc3)C2=O)cc1 | > 100 µM (inactive) |

Exam item: Return the recorded GI50 value; entry: "NNC(=O)/C(NC(=O)c1ccccc1)=C(\N)c1cccc([N+](=O)[O-])c1"
Marked response: > 100 µM (inactive)

---

Tested on: SF-295
measurement_description: NCI tumour cell line growth inhibition, 48 h
Calls of active or inactive are those of the source. No stated cut-off is given here; in the data, active = GI50 up to about 1.1 µM and inactive = higher.
Item-by-item account of GI50

| compound | system_under_test | GI50 |
| --- | --- | --- |
| COC(=O)Nc1nc2ccc(S(=O)(=O)SC)cc2[nH]1 | SF-295 | 7.8 µM (inactive) |
| NC1=NC2=c3ccccc3=C(c3cnccn3)C2(c2cnccn2)c2ccccc21 (stereo unspecified) | SF-295 | 42.2 µM (inactive) |
| C1=CN2C[n+]3ccc4ccccc4c3N=C2c2ccccc21 | SF-295 | 2.69 µM (inactive) |
| CC(=O)O[C@]1(C(C)=O)CC[C@H]2[C@@H]3C[C@H](C)C4=CC(=O)C=C[C@]4(C)[C@@]3(F)[C@@H](O)C[C@@]21C [FLUOROMETHOLONE ACETATE] | SF-295 | 66.7 µM (inactive) |
| OCCN(CCO)c1ncnc2[nH]cnc12 | SF-295 | > 100 µM (inactive) |
| Cc1ccc(/N=N/N(C)C(=O)C(C)N)cc1 (stereo unspecified) | SF-295 | > 100 µM (inactive) |

Exam item: Return the recorded GI50 value; entry: "CCOc1ccc2c(c1)[n+]([O-])c(S(=O)(=O)c1ccc(C)cc1)c(N)[n+]2[O-]"
Marked response: > 100 µM (inactive)

Exam item: Return the recorded GI50 value; entry: CC1=CC(=O)c2ccccc2C1=O [MENADIONE]
Marked response: 16.5 µM (inactive)

Exam item: Return the recorded GI50 value; entry: O=C1CSC(c2c[nH]c3ccccc23)N1c1ccc(Cl)cc1 (stereo unspecified)
Marked response: > 100 µM (inactive)

Exam item: Return the recorded GI50 value; entry: "CCOC(=O)c1cn(CC)c2cc3c(cc2c1=O)SCS3"
Marked response: > 100 µM (inactive)

Exam item: Return the recorded GI50 value; entry: "CCCCC#CS(=O)(=O)C(F)(F)F"
Marked response: 20.3 µM (inactive)
